- assayExplanation: qHTS assay for small molecule disruptors of the mitochondrial membrane potential - 5 hr assay (AID 651755); note: nearly all actives have a fitted effect of over 40% in size
- cond: JC-1-type ratio dye; series mostly up to 92.2 µM
Results filed as inconclusive are left out. Activity calls are given as the source filed them. Calls come from the whole dose curve.
Answer with one of the outcomes active, inactive

(Q) Entry O.O.O.O.O.O.O.O=S(=O)([O-])[O-].[Co+2] : call = ?
(A) inactive

(Q) Assay outcome for OC[C@H]1O[C@@H]2O[C@H]3[C@H](O)[C@@H](O)[C@@H](O[C@H]4[C@H](O)[C@@H](O)[C@@H](O[C@H]5[C@H](O)[C@@H](O)[C@@H](O[C@H]6[C@H](O)[C@@H](O)[C@@H](O[C@H]7[C@H](O)[C@@H](O)[C@@H](O[C@H]1[C@H](O)[C@H]2O)O[C@@H]7CO)O[C@@H]6CO)O[C@@H]5CO)O[C@@H]4CO)O[C@@H]3CO : what was it?
(A) inactive

(Q) For this compound, state the assay outcome: OCc1ccccc1
(A) inactive

(Q) Check the results log: what was the call for ClC(Cl)Cl ?
(A) inactive

(Q) Fill in: this test's call for [O-][N+](=Nc1ccccc1)c1ccccc1 is ___
(A) inactive

(Q) Dear colleague, could you share the recorded outcome for CC/C=C\C/C=C\C/C=C\CCCCCCCC(=O)O when you have a moment?
(A) inactive

(Q) Any idea what this test logged for OCl ?
(A) inactive

(Q) Record request — test call for Oc1cccc(O)c1O
(A) inactive

(Q) Outcome logged for O=P(O)(O)O in this assay:
(A) inactive

(Q) Tell me the assay call for OB(O)O please.
(A) inactive

(Q) Per the records of this test, what outcome belongs to Nc1ncnc2c1ncn2[C@H]1CC[C@@H](CO)O1 ?
(A) inactive

(Q) How did this test come out for C[C@H](CCC(=O)O)[C@H]1CC[C@H]2[C@@H]3[C@H](O)C[C@@H]4C[C@H](O)CC[C@]4(C)[C@H]3C[C@H](O)[C@]12C ?
(A) inactive
